Reference for the values: ChEMBL document CHEMBL1139483

Where a SMILES comes first, the peptide text is derived from it. [ ]: non-standard residue; d: D form. The star is where a group is joined. Pip = O=C(O)[C@@H]1CCCCN1; Abu = CC[C@H](N)C(=O)O; Aib = CC(C)(N)C(=O)O; NHBu = CCCCN*
So I've got pKi readings for UniProt:Q64560, take a look.
Sequence (Q64560 whole entry): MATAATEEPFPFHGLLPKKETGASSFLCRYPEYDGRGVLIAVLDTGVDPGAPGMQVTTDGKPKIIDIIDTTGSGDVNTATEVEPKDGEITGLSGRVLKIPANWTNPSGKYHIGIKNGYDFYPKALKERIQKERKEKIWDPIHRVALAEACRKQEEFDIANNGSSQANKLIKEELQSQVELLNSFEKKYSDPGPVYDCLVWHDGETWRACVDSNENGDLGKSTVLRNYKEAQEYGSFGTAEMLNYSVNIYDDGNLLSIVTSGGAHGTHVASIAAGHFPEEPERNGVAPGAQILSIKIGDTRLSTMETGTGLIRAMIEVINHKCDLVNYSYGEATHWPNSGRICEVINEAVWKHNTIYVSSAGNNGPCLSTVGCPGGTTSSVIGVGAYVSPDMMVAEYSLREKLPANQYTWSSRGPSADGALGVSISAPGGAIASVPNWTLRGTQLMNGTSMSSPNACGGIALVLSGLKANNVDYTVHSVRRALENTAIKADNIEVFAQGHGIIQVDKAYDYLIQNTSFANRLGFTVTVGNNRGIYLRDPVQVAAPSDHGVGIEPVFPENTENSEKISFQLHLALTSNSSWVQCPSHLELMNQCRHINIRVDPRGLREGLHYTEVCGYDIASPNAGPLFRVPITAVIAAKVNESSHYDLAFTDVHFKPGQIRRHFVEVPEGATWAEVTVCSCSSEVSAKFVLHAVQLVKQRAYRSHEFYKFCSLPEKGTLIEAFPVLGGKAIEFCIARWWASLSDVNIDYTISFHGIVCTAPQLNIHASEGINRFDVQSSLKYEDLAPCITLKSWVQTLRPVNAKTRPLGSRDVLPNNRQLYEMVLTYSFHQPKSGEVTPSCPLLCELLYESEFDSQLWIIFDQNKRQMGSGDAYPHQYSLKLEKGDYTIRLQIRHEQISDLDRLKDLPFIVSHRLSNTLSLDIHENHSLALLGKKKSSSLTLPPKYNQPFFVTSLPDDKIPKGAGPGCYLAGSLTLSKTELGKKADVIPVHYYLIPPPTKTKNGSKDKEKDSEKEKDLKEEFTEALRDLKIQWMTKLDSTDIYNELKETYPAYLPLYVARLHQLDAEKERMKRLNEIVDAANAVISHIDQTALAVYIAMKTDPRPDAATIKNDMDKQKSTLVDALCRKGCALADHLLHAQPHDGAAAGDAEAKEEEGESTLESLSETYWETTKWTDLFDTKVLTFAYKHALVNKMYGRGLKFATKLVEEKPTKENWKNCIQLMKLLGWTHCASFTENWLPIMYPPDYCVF
Convention used: pKi is expressed as -log10 of the molar concentration.

Would you please look over these solved cases?
compound | pKi
CCCCNC(=O)[C@@H]1CCCN1C(=O)C(C)(C)N (H-[Aib]-Pro-NHBu) | 5.30
CCCCNC(=O)[C@@H]1CCCCN1C(=O)[C@@H](N)CC (H-[Abu]-[Pip]-NHBu) | 4.46
CC[C@H](C)[C@H](N)C(=O)N1CCC[C@H]1C(N)=O (H-Ile-Pro-NH2) | 5.37
CC[C@H](N)C(=O)N1CCC[C@H]1C(N)=O (H-[Abu]-Pro-NH2) | 6.24

Next, consider the following compound.
The recorded pKi with UniProt:Q64560 for CC[C@H](C)NC(=O)[C@@H]1CCCN1C(=O)[C@@H](N)CC was 4.70
